// reported log10(MEC) per item
Tested on: Escherichia coli
run-description: Inhibition of Escherichia coli ECM6619 TEM-10 assessed as minimum concentration of compound needed to reduce the MIC of aztreonam to 4 ug/ml
The common logarithm of MEC in µg/mL is what is listed.

Look over these answered cases.
Query: Provide log10(MEC) value for the following molecule: `COc1ccc2c(c1C(=O)O)OB(O)C=C2`
Reply: 1.30

Query: For the molecule COc1ccc2c(c1C(=O)O)OB(O)C1CC21 (stereo not given) , give its reported log10(MEC).
Reply: -0.52

Further cases:
Query: Retrieve log10(MEC) measured for `COc1ccc2c(c1C(=O)O)OB(O)[C@H]1C[C@@H]21` and print it.
Reply: -0.22

Query: Read the entry `COc1ccc2c(c1C(=O)O)OB(O)[C@@H]1C[C@H]21` and write its reported log10(MEC).
Reply: -1.10

Query: Return reported log10(MEC). Input molecule: `O=C(O)c1cccc2c1OB(O)[C@@H]1C[C@H]21`
Reply: -0.80

Query: Give the reported value of log10(MEC) for this record: `O=C(O)c1c(F)ccc2c1OB(O)[C@@H]1C[C@H]21`
Reply: -0.80

Query: Determine its reported log10(MEC): `O=C(O)c1cccc2c1OB(O)CC2`
Reply: 1.00

Query: Let me know recorded log10(MEC) for COc1ccc2c(c1C(=O)O)OB(O)C1(CO)CC21 (stereo not given) , thanks.
Reply: 0.70

Query: Annotate the molecule COc1ccc2c(c1C(=O)O)OB(O)C1CCC21 (stereo not given) with its measured log10(MEC).
Reply: 1.00

Query: Kindly indicate its recorded log10(MEC). Item: `COc1ccc2c(c1C(=O)O)OB(O)C(F)=C2`
Reply: 0.10

Query: Give the measured log10(MEC) for `O=C(O)c1nccc2c1OB(O)[C@@H]1C[C@H]21`
Reply: -0.52

Query: Report log10(MEC), nothing else, for this molecule: `COc1ccc2c(c1C(=O)O)OB(O)CC2`
Reply: -1.10

Query: Look up and state reported log10(MEC) for `O=C(O)c1cccc2c1OB(O)[C@H]1C[C@@H]21`
Reply: 0.70

Query: Please supply the value of reported log10(MEC) for the item `COc1ccc2c(c1C(=O)O)OB(O)CC21CC1`
Reply: 0.70

Query: Please give measured log10(MEC) of the following entry: `O=C(O)c1nccc2c1OB(O)[C@H]1C[C@@H]21`
Reply: 0.70
